# Test system: SW-620 colon
# methodDescription: NCI tumour cell line growth inhibition, 48 h
Here, each record is paired with measured GI50 data.
quantityMeasured: GI50

structuresmilesstring=O=S(=O)(Nc1ccc(-c2nc(-c3cccc(OCCN4CCOCC4)c3)c(-c3ccnc(Br)c3)[nH]2)cc1)c1ccccc1 assaytarget="SW-620 colon" quantitymeasured=GI50 result="3.53 µM"
structuresmilesstring=CO/N=C(\c1ccccc1)c1cnn(-c2ccccc2)c1N assaytarget="SW-620 colon" quantitymeasured=GI50 result="> 25 µM"
structuresmilesstring=COc1ccc(/C=C2/CN(C(=O)c3ccccc3F)C/C(=C\c3ccc(OC)cc3)C2=O)cc1 assaytarget="SW-620 colon" quantitymeasured=GI50 result="1.86 µM"
structuresmilesstring=Nc1ccccc1C#C/C=C\C#Cc1ccc(F)cc1F assaytarget="SW-620 colon" quantitymeasured=GI50 result="36.9 µM"
structuresmilesstring=ClCCN(CCCl)Cc1ccc(Nc2ccnc3cc(Cl)ccc23)cc1 assaytarget="SW-620 colon" quantitymeasured=GI50 result="1.35 µM"
structuresmilesstring=O=C(CC12CC3CC(CC(C3)C1)C2)NCCOCCOCCNC(=O)c1cc2c(o1)C(=O)c1ccccc1C2=O assaytarget="SW-620 colon" quantitymeasured=GI50 result="1.21 µM"
structuresmilesstring=CN(C(=O)c1ccc(F)cc1C(F)(F)F)C1CCN(c2nnc(-c3ccnn3C)c3ccccc23)CC1 assaytarget="SW-620 colon" quantitymeasured=GI50 result="> 100 µM"
structuresmilesstring=Cn1ncc2cc(-c3cnc(N)c(Cl)c3N3CCC4(CCNC4=O)CC3)ccc21 assaytarget="SW-620 colon" quantitymeasured=GI50 result="21.3 µM"
structuresmilesstring=COc1ccc2c(c1)C(=O)c1c-2c(NCCCN(C)C)nc2ccccc12 assaytarget="SW-620 colon" quantitymeasured=GI50 result="1.45 µM"
structuresmilesstring=COc1ccc(-c2cc3cccc(OC)c3c(=O)o2)cc1OC assaytarget="SW-620 colon" quantitymeasured=GI50 result="40 µM"

Each recorded value in this set is attributed to PubChem BioAssay (NCI).
